Tested on: intestinal absorption of a phosphate meal from the gastrointestinal tract
experiment_summary: Acute phosphate tracer uptake to plasma after intragastric co-administration of phosphate test meal and compound (Example 5)
Type: in vivo, rat
experimental_setup: rats; 15 min after intragastric co-administration; dose 10 mg/kg
test_readout: Uptake of phosphate tracer to plasma, % of study vehicle

molecule	reported_measurement
Nc1nc(-c2nn(Cc3ccccc3F)c3ncccc23)ncc1C1CC1	>75%
NC[C@@H]1O[C@H](c2ccccc2)Cc2c1ccc(O)c2O	50-75%
O=C(O)CCCCN(CCc1ccccc1OCc1ccc(CCc2ccccc2)cc1)Cc1ccc(C(=O)O)cc1	50-75%

Now examine the next entry.
Challenge: Recorded Uptake of phosphate tracer to plasma, % of study vehicle of N#Cc1c(N)nc(SCC(N)=O)c(C#N)c1-c1ccc(OCC2CC2)cc1 , please.
Response given: >75%

Every entry's value here was drawn from patent US11813304B2.
